target: androgen receptor (Homo sapiens, UniProt P10275, T878A); construct: Destabilization of AR in LNCaP Cells by Test Substances; endogenous in cells; host or cells: LNCaP (human prostate cell line); assay type: cell-based; settings: LNCaP cells, 48 h, 10 μM, % of DMSO control
Sequence (P10275 whole entry T878A): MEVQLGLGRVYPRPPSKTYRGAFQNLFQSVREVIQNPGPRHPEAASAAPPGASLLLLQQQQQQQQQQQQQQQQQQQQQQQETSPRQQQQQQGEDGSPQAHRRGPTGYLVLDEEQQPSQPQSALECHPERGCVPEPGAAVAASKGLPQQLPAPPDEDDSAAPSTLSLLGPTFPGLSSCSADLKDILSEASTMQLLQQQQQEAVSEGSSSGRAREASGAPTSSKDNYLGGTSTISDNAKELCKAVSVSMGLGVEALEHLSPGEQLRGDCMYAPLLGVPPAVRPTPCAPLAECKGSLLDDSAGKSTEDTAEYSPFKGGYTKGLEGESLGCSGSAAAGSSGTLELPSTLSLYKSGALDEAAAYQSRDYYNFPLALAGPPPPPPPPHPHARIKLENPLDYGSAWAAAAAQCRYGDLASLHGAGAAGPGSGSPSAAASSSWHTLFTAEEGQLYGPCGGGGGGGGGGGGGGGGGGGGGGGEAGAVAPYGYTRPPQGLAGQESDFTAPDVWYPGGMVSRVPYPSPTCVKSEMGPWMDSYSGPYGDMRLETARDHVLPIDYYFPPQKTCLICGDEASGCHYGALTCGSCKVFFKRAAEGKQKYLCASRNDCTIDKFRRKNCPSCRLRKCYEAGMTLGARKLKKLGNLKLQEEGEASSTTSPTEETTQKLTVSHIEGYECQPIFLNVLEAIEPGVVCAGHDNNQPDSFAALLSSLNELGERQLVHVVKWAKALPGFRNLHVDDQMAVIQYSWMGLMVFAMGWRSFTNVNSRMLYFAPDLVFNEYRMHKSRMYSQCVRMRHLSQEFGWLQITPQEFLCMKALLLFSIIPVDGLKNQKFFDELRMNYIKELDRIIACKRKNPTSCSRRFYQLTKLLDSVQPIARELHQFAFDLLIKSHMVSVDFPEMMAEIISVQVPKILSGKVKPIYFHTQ
Exercise: state measured AR Content at 10 μM for each of the compounds provided.
Give just the number in %; leave the unit off.

Input line: Requested read-out AR Content at 10 μM, target or system androgen receptor (Homo sapiens, UniProt P10275, T878A), entry CC1(C)C(=O)N(c2ccc(C#N)c(C(F)(F)F)c2)C(=S)N1CCCCCCCCN1CCCC1 [Example 1]
Output line: 63

Input line: Moving on to the next compound: CC1(C)C(=O)N(c2ccc(C#N)c(C(F)(F)F)c2)C(=S)N1CCCCCCCCN1CCCC1.Cl [Example 2]
Output line: 50

Input line: Moving on to the next compound: CC1(C)C(=O)N(c2ccc(C#N)c(C(F)(F)F)c2)C(=S)N1CCCCCCN1CC[C@@H](C(N)=O)C1 [Example 52]
Output line: 36

Input line: Moving on to the next compound: CC1(C)C(=O)N(c2ccc(C#N)c(C(F)(F)F)c2)C(=S)N1CCCCCCCCN1CCC[C@H]1CO [Example 11]
Output line: 50

Input line: Moving on to the next compound: CC1(C)C(=O)N(c2ccc(C#N)c(C(F)(F)F)c2)C(=S)N1CCO [Example 71 USRe 35956, reference compound]
Output line: 191
